System: drug-resistant cell lines of Table 3
Experiment: Cell line growth retardation assay, resistant cohort
Assay type: cell-based, Human
Settings: Homo sapiens, 144 h; arithmetic mean of IC50s over the resistant cohort of Table 3, 6 days growth; read-out: AvgRes IC50
pIC50: −log10 of the molar value.
endpoint_label: pIC50

Recorded pIC50, per entry:
Tell me its pIC50 on drug-resistant cell lines of Table 3: `COc1cccc(-c2ncc3snc(O[C@H](Cc4ccccc4OCc4ccnc(OCCCC(F)(F)F)n4)C(=O)O)c3c2-c2ccc(OCCN3CCN(C)CC3)c(Cl)c2C)c1` < 5.30

Determine reported pIC50 for COc1ccccc1-c1nccc(COc2ccccc2C[C@@H](Oc2nsc3cnc(-c4cnc(C)o4)c(-c4ccc(OCCN5CCN(C)CC5)c(Cl)c4C)c23)C(=O)O)n1 (atropisomer, axis not shown) ; test system: drug-resistant cell lines of Table 3. < 5.30

Okay, next one:
Give pIC50 for this entry on drug-resistant cell lines of Table 3: COc1cccc(-c2ncc3snc(O[C@H](Cc4ccccc4OCc4ccnc(-c5ccccc5OC)n4)C(=O)O)c3c2-c2ccc(OC)c(Cl)c2C)c1 (atropisomer, axis not shown) < 5.30
